All figures here come from BindingDB's records for doi:10.1016/j.bmcl.2006.12.077.

Target: Vascular endothelial growth factor receptor 2 (Homo sapiens)
Sequence (P35968 whole entry): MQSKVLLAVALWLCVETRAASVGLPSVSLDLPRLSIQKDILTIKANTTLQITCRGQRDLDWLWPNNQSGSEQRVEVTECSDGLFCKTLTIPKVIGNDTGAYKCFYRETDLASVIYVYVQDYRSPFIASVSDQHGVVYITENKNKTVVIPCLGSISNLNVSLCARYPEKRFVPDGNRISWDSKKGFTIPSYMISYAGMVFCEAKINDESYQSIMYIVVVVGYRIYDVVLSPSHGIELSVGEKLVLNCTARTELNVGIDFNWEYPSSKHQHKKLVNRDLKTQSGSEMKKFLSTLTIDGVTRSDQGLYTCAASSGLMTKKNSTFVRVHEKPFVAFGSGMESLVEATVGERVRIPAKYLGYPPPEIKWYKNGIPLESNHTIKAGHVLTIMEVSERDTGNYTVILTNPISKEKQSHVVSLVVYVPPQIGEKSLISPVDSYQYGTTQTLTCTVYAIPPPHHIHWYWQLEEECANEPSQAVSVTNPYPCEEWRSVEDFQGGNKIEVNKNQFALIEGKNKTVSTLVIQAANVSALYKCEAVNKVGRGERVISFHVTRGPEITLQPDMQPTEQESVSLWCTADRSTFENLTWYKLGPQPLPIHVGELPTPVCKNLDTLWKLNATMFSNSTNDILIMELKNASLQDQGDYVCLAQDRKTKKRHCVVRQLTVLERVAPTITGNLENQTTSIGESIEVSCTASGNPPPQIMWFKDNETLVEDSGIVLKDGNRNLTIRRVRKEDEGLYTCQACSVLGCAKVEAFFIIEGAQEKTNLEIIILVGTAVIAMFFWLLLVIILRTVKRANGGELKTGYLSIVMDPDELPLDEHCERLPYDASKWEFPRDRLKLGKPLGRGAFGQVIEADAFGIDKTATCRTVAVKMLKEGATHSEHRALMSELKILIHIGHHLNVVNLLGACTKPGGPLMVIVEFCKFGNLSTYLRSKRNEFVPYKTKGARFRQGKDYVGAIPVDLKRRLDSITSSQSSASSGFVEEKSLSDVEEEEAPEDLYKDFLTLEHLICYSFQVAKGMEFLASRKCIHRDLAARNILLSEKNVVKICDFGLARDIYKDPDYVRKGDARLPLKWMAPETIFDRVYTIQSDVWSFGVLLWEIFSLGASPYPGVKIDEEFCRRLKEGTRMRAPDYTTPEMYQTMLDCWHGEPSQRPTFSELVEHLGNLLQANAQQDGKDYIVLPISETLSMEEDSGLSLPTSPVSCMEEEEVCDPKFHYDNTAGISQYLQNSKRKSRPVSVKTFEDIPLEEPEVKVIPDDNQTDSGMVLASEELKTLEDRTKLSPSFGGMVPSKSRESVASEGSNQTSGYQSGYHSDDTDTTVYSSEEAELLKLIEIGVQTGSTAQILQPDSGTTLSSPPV
Property: IC50 (µM)

> print(dat)
                           structure.string  property  unit.abbrev  result
1  COc1ccc(-c2oc3ncnc(N)c3c2-c2ccc(NC(=O)Nc3cc(C(F)(F)F)ccc3F)cc2)cc1      IC50           µM  0.0155
